src = patent US10301272B2

- assayedSystem: RORγ ligand binding domain (LBD) (Homo sapiens (Human), UniProt P51449)
- testDetails: TR-FRET Activity Assay (ligand sensing assay, LANCE)
- testConditions: TR-FRET, interaction of RORγ-LBD with coactivator peptide
measureName: pIC50 (FRET)

input: Would you mind telling me what pIC50 (FRET) value was observed for CC(C)(C)NS(=O)(=O)c1ccc(-c2nc(C(=O)NC34CCC(C(=O)O)(CC3)CC4)oc2CC2CCCCC2)c2ccccc12 ?
output: 6.2/7.4/7.4

input: CC(C)(C)NS(=O)(=O)c1ccc(-c2nc(C(=O)NC3CCS(=O)(=O)CC3)oc2CC2CCCCC2)c2ccccc12 , same question.
output: 6.3/7.2/7.3

input: CC1(c2cc(Cl)cc(-c3sc(C(=O)N[C@H]4C[C@H](C(=O)O)C4)nc3CC3CCCCC3)c2)CC1 , same question.
output: 5.4/6.9/7.0

input: CC(C)(C)NS(=O)(=O)c1ccc(-c2sc(C(=O)NC3C[S+]([O-])C3)nc2CC2CCCCC2)cc1C(C)(C)O (centres unmarked) [Example 15/1] , same question.
output: 6.7/8.0/8.0

input: CC(C)(C)NS(=O)(=O)c1ccc(-c2sc(C(=O)N[C@H]3C[C@H](C(=O)O)C3)nc2CC2CCCCC2)c2c(F)cccc12 , same question.
output: 6.3/7.0/7.1

input: CC(C)(C)NS(=O)(=O)c1ccc(-c2sc(C(=O)N[C@H]3C[C@H](C(=O)O)C3)nc2CC2CCCCC2)cc1C(F)(F)F , same question.
output: 6.9/8.0/8.0

input: CC(C)(C)NS(=O)(=O)c1ccc(-c2sc(C(=O)NCC3(C(N)=O)CCOCC3)nc2CC2CCCCC2)c2ccccc12 , same question.
output: 6.5/8.5/8.7

input: CC1(C)COCCN1Cc1ccc(-c2sc(C(=O)NC3CCS(=O)(=O)CC3)nc2CC2CCCCC2)c2ccccc12 , same question.
output: 6.8/7.7/7.9

input: CC(C)(C)c1cc(-c2sc(C(N)=O)nc2CC2CCCCC2)cc(C(C)(C)C)c1 , same question.
output: 6.7/6.3/6.1

###

- assayedSystem: RORγ ligand binding domain (LBD) (Homo sapiens (Human), UniProt P51449)
- testDetails: TR-FRET Activity Assay (ligand sensing assay, LANCE)
- testConditions: TR-FRET, interaction of RORγ-LBD with coactivator peptide
measureName: pIC50 (FRET)

{"lineNotation": "COC(=O)C(C)(C)CCNC(=O)c1nc(CC2CCCCC2)c(-c2cc(C(C)(C)C)cc(C3(C)CC3)c2)s1", "pIC50 (FRET)": "6.7/6.2/6.3"}
{"lineNotation": "CC(C)(C)NS(=O)(=O)c1ccc(-c2oc(C(=O)NCC3(O)CCOCC3)nc2CC2CCCCC2)c2ccccc12", "pIC50 (FRET)": "6.3/8.1/8.2"}

Turning now to a further compound:
input: Would you mind telling me what pIC50 (FRET) value was observed for CC(C)(C)NS(=O)(=O)c1ccc(-c2sc(C(=O)NCc3ncc(S(C)(=O)=O)s3)nc2CC2CCCCC2)c(Cl)c1Cl ?
output: 7.2/8.3/8.4

###

- assayedSystem: RORγ ligand binding domain (LBD) (Homo sapiens (Human), UniProt P51449)
- testDetails: TR-FRET Activity Assay (ligand sensing assay, LANCE)
- testConditions: TR-FRET, interaction of RORγ-LBD with coactivator peptide
# pIC50 (FRET) annotations

Known results for molecules:
{"molecule": "CCS(=O)(=O)c1ccc(CC(=O)Nc2nc(-c3ccccc3)c(Cc3ccccc3)s2)cc1", "pIC50 (FRET)": 5.8}
{"molecule": "CC(C)(C)c1cc(-c2nc(S(N)(=O)=O)sc2CC2CCCCC2)cc(C(C)(C)C)c1", "pIC50 (FRET)": "5.9/6.1/6.0"}
{"molecule": "CC(C)(C)NS(=O)(=O)c1ccc(-c2sc(C(=O)NC3C[S+]([O-])C3)nc2CC2CCCCC2)cc1C(C)(C)O (centres unmarked) [15/2]", "pIC50 (FRET)": "6.6/7.3/7.3"}
{"molecule": "CC(C)(C)NS(=O)(=O)c1ccc(-c2sc(C(=O)NCC3(C(N)=O)CCOCC3)nc2CC2CCCCC2)cc1C(C)(C)C", "pIC50 (FRET)": "6.5/7.5/7.7"}

input: Would you mind telling me what pIC50 (FRET) value was observed for CC(C)(C)NS(=O)(=O)c1ccc(-c2oc(C(=O)N[C@H]3C[C@H](C(=O)NS(C)(=O)=O)C3)nc2CC2CCCCC2)c2ccccc12 ?
output: 6.1/6.7/6.7

###

- assayedSystem: RORγ (Homo sapiens, UniProt P51449)
- Sequence (P51449 whole entry, looked up, the tested form may be a part): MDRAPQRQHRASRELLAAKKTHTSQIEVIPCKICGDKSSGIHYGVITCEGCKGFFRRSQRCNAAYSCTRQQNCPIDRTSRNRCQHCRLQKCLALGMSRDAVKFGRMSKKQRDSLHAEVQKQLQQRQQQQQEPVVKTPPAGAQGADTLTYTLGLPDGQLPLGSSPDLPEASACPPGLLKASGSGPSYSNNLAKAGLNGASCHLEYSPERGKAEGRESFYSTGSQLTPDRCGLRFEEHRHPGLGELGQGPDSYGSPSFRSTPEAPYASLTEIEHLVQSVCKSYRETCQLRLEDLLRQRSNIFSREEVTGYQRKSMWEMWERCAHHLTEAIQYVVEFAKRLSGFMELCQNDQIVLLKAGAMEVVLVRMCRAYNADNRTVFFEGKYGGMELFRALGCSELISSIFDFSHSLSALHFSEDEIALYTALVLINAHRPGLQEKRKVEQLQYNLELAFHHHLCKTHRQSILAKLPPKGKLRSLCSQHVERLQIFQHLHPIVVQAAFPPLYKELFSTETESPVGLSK
- testDetails: RORγ Gal4 Reporter Gene Assay
- Type: cell-based
measureName: pIC50 (REN)

Known results for molecules:
{"molecule": "CC(C)(O)CNC(=O)c1nc(CC2CCCCC2)c(-c2ccc(S(=O)(=O)NC(C)(C)C)c3cccc(F)c23)s1", "assayedSystem": "RORγ (Homo sapiens, UniProt P51449)", "measureName": "pIC50 (REN)", "result": "6.4/6.8/6.9"}
{"molecule": "CC(C)(C)NS(=O)(=O)c1ccc(-c2sc(C(=O)NC3CCS(=O)(=O)CC3)nc2-c2ccccc2)c2ccccc12", "assayedSystem": "RORγ (Homo sapiens, UniProt P51449)", "measureName": "pIC50 (REN)", "result": "7.2/7.8/7.9"}
{"molecule": "CNC(=O)C(C)(C)CCNC(=O)c1nc(CC2CCCCC2)c(-c2ccc(S(=O)(=O)NC(C)(C)C)c(C(F)(F)F)c2)s1", "assayedSystem": "RORγ (Homo sapiens, UniProt P51449)", "measureName": "pIC50 (REN)", "result": "6.2/7.0/7.1"}
{"molecule": "CC(C)(C)NS(=O)(=O)c1ccc(-c2oc(C(=O)N[C@H]3C[C@H](C(=O)O)C3)nc2CC2CCCCC2)c(Cl)c1Cl", "assayedSystem": "RORγ (Homo sapiens, UniProt P51449)", "measureName": "pIC50 (REN)", "result": "6.1/7.1/7.0"}

input: Would you mind telling me what pIC50 (REN) value was observed for CC(C)(CNC(=O)c1nc(CC2CCCCC2)c(-c2cc(C(C)(C)C)cc(C3(C)CC3)c2)o1)C(=O)O ?
output: 5.9/6.6/6.6

input: CC(C)(C)NC(=O)c1ccc(-c2sc(C(=O)NC3CCS(=O)(=O)CC3)nc2CC2CCCCC2)c2ccccc12 , same question.
output: 6.2/6.6/6.5

input: CC(C)COc1cc(-c2sc(C(=O)N[C@H]3C[C@H](C(=O)O)C3)nc2CC2CCCCC2)cc(C(C)(C)C)n1 , same question.
output: 5.9/7.4/7.4

input: CC1(c2cc(-c3sc(C(=O)N[C@H]4C[C@H](C(=O)O)C4)nc3CC3CCCCC3)cc(C(F)(F)F)c2)CC1 , same question.
output: 6.5/7.1/7.1

input: CC(C)(C)NS(=O)(=O)c1ccc(-c2sc(C(=O)NC3COC3)nc2CC2CCCCC2)c(Cl)c1Cl , same question.
output: 7.2/8.5/8.5

input: CC(C)(C)NS(=O)(=O)c1ccc(-c2oc(C(=O)NC3CCS(=O)(=O)CC3)nc2CC2CCC2)c2ccccc12 , same question.
output: 6.6/7.5/7.9

input: CC(C)(C)c1cc(-c2ccc(C(N)=O)cc2CC2CCCCC2)cc(C(C)(C)C)c1 , same question.
output: 6.4/6.2/6.2

input: CC(C)(O)CNC(=O)c1nc(CC2CCCCC2)c(-c2ccc(S(=O)(=O)NC(C)(C)C)c(C(C)(C)O)c2)s1 , same question.
output: 6.6/7.5/7.6

input: CC(C)(C)NS(=O)(=O)c1ccc(-c2sc(C(=O)NC3C[S+]([O-])C3)nc2CC2CCCCC2)cc1C(C)(C)O (stereo not shown) [Example 15/1] , same question.
output: 6.7/8.0/8.0

###

# pIC50 (FF) annotations
- assayedSystem: RORγ (Homo sapiens)
- testDetails: RORγ Gal4 Reporter Gene Assay
- Assay type: cell-based

Known results for compounds:
{"compound": "CC(C)(C)NS(=O)(=O)c1ccc(-c2oc(C(=O)NC3CCOCC3)nc2CC2CCCCC2)cc1C(C)(C)C", "assayedSystem": "RORγ (Homo sapiens)", "measureName": "pIC50 (FF)", "result": "5.9/6.3/6.3"}
{"compound": "CC(C)(O)CNC(=O)c1nc(CC2CCCCC2)c(-c2ccc(S(=O)(=O)NC(C)(C)C)c3c(F)cccc23)s1", "assayedSystem": "RORγ (Homo sapiens)", "measureName": "pIC50 (FF)", "result": "7.0/7.7/7.8"}
{"compound": "CC(C)(C)NS(=O)(=O)c1ccc(-c2sc(C(=O)NCc3ncc(S(C)(=O)=O)s3)nc2CC2CCCCC2)c(Cl)c1Cl", "assayedSystem": "RORγ (Homo sapiens)", "measureName": "pIC50 (FF)", "result": "7.2/8.3/8.4"}
{"compound": "CC(C)(C)NS(=O)(=O)c1ccc(-c2sc(C(=O)NC3CS(=O)(=O)C3)nc2CC2CCCCC2)cc1C(C)(C)O", "assayedSystem": "RORγ (Homo sapiens)", "measureName": "pIC50 (FF)", "result": "6.9/7.9/7.9"}
{"compound": "CC(C)(C)NS(=O)(=O)c1ccc(-c2sc(C(=O)NC3C[S+]([O-])C3)nc2CC2CCCCC2)cc1C(C)(C)O (centres unmarked) [Example 15/1]", "assayedSystem": "RORγ (Homo sapiens)", "measureName": "pIC50 (FF)", "result": "6.7/8.0/8.0"}
{"compound": "CCNS(=O)(=O)c1ccc(-c2sc(C(=O)NCC(C)(C)O)nc2CC2CCCCC2)c(Cl)c1Cl", "assayedSystem": "RORγ (Homo sapiens)", "measureName": "pIC50 (FF)", "result": "6.9/8.1/8.0"}

input: Would you mind telling me what pIC50 (FF) value was observed for CC(C)(C)NS(=O)(=O)c1ccc(-c2oc(C(=O)N[C@H]3C[C@H](C(=O)NS(C)(=O)=O)C3)nc2CC2CCCCC2)c2ccccc12 ?
output: 6.1/6.7/6.7

input: CC(C)(C)c1cc(-c2sc(S(N)(=O)=O)nc2CC2CCCCC2)cc(C2(C)CC2)c1 , same question.
output: 7.0/6.5/6.7

input: CC(C)(C)NS(=O)(=O)c1ccc(-c2oc(C(=O)NC3CCS(=O)(=O)CC3)nc2CC2CCCCC2)c2ccccc12 , same question.
output: 6.4/8.5/8.4

input: CC(C)(C)NC(=O)c1ccc(-c2sc(C(=O)NC3CCS(=O)(=O)CC3)nc2CC2CCCCC2)c2ccccc12 , same question.
output: 6.2/6.6/6.5

input: CC(C)(C)c1cc(-c2sc(C(N)=O)nc2CC2CCCCC2)cc(C(C)(C)C)c1 , same question.
output: 6.7/6.3/6.1

input: CC1CC(C)CN(C(=O)c2nc(C(=O)NCC(C)(C)O)sc2-c2ccc(S(=O)(=O)NC(C)(C)C)c3ccccc23)C1 (centres unmarked) , same question.
output: 6.0/6.9/6.9

input: CC(C)(O)CNC(=O)c1nc(CC2CCCCC2)c(-c2ccc(S(=O)(=O)NC(C)(C)C)c(Cl)c2OC(F)F)s1 , same question.
output: 6.9/8.2/8.4
